# test protocol: NCI Yeast Anticancer Drug Screen. Data for the mec2-1 strain (AID 157)
# experimental setup: S. cerevisiae mec2-1 strain, at 50.0 µM (retest, dose inferred, filed as 5.0)
About 79,000 compounds went through this panel and 15% of them were active in at least one assay; those are over-represented in the sample as a whole. Calls of active or inactive are those of the source. Cut-off read from the data, not from the text of the source: active = growth inhibition above about 70%; inactive = the rest.
The categories you may choose from are active, inactive

Before answering, review these 10 worked examples.
>>> discrete_label("COc1cc2c(cc1OC)C(C)N(C)c1c-2c(OC(C)=O)cc2cc(OC)c(OC)cc12 (stereo not drawn)")
"inactive"
>>> discrete_label("C1=C(c2ccccc2)SC=C(c2ccccc2)S1")
"inactive"
>>> discrete_label("CC/C=C(\\C)CC(C)O (stereo not drawn)")
"inactive"
>>> discrete_label("O=C(Nc1ccc2c(c1)Cc1cc([N+](=O)[O-])c(F)cc1-2)C(F)(F)F")
"inactive"
>>> discrete_label("Cc1ccc(NN)cc1")
"inactive"
>>> discrete_label("CCCCCCCCCCCCCC/C(=C/OCC[N+](C)(C)C)OC(C)=O (tested in a mixture with another compound)")
"active"
>>> discrete_label("CCc1ccc2ccc3ccc(CC)nc3c2n1")
"active"
>>> discrete_label("Cn1c(=S)sc2nc3ccccc3n2c1=S")
"active"
>>> discrete_label("CC(C)(C)/C=N/NS(=O)(=O)c1ccccc1")
"inactive"
>>> discrete_label("O=C(Nc1ccccc1)c1cccc2ccccc12")
"inactive"

Req: Hi, do you know how COC(=O)c1cc2c(oc1=O)-c1ccccc1N(C=O)C2 came out in this test?
Resp: inactive

Req: Hi, do you know how CC(=O)Oc1c(C2CCCCC2)cc([N+](=O)[O-])cc1[N+](=O)[O-] came out in this test?
Resp: active

Req: Hi, do you know how CCCCCCCCCCNC(=O)C[n+]1cccc(C(=O)Nc2ccccc2)c1 came out in this test?
Resp: active

---

# test protocol: NCI Yeast Anticancer Drug Screen. Data for the mlh1 rad18 strain (AID 175)
# experimental setup: S. cerevisiae mlh1 rad18 strain growth inhibition; at 50.0 µM; active compounds read high
About 79,000 compounds went through this panel and 15% of them were active in at least one assay; those are over-represented in the sample as a whole. Calls of active or inactive are those of the source. No stated cut-off is given here; in the data, active means growth inhibition above about 70%; inactive means the rest.
growth inhibition values, listed per item

>>> result("C1=C(c2ccccc2)CCc2ccccc21")
"1.5% (inactive)"
>>> result("N#C/C(=C\\NC(=S)Nc1cc(Cl)ccc1Cl)c1nc2ccccc2s1")
"27.1% (inactive)"
>>> result("O=C(O)C(CCc1cccc2ccccc12)c1ccccc1 (stereo unspecified)")
"99.4% (active)"
>>> result("CC1=C(C#N)C(=O)OC1(C)C(CC(=O)c1ccccc1)c1ccccc1 (stereo unspecified)")
"1.85% (inactive)"
>>> result("CN1C=COC1N=C1CCCCC1 (stereo unspecified)")
"-32.1% (inactive)"

Req: Please give the measured growth inhibition for this compound: Cc1ccc(SSCCCS(=O)O)cc1
Resp: 75.2% (active)

Req: Please give the measured growth inhibition for this compound: COC(=O)c1nnn(-c2ccc(S(N)(=O)=O)cc2)c1C(=O)c1ccc(Cl)c(Cl)c1
Resp: 98.3% (active)

Req: Please give the measured growth inhibition for this compound: C=CCNc1nc2c(s1)C(=O)c1ccccc1C2=O
Resp: 88% (active)

---

# test protocol: NCI Yeast Anticancer Drug Screen. Data for the mlh1 rad18 strain (AID 175)
# experimental setup: S. cerevisiae mlh1 rad18 strain growth inhibition; at 50.0 µM (retest, dose inferred, filed as 5.0); active compounds read high
About 79,000 compounds went through this panel and 15% of them were active in at least one assay; those are over-represented in the sample as a whole. Active and inactive are the calls of the source. Cut-off read from the data, not from the text of the source: active = growth inhibition above about 70%; inactive = the rest.
observed property: growth inhibition

Example results:
>>> result("C[N+](C)([O-])CCC=C1c2ccccc2CCc2ccccc21")
"33% (inactive)"
>>> result("COc1ccc(C2=NN(c3ccccc3)C[N+](c3ccc(C)cc3)=N2)cc1")
"98% (active)"

Req: Please give the measured growth inhibition for this molecule: O=C(c1cccs1)N(C(=S)N1CCN(c2ccccn2)CC1)C1CCCCC1
Resp: 29% (inactive)

Req: Please give the measured growth inhibition for this molecule: Nc1ccc2c(c1)S(=O)(=O)c1cc(N)ccc1-2
Resp: 25% (inactive)

Req: Please give the measured growth inhibition for this molecule: C=C1CC(COc2ccc3c(C)cc(=O)oc3c2)(c2ccccc2)OC1=O (stereo not drawn)
Resp: 22% (inactive)

Req: Please give the measured growth inhibition for this molecule: O=C1OC(c2ccccc2)(c2ccccc2)CC1CN1CCOCC1 (stereo not drawn)
Resp: 88% (active)

src = PubChem BioAssay (NCI)
